Target: IN-GCN2 interaction (6xHis-IN / GST-GCN2) (UniProt P04585+Q9P2K8)
Sequence (Q9P2K8 192-1024, other chains not shown): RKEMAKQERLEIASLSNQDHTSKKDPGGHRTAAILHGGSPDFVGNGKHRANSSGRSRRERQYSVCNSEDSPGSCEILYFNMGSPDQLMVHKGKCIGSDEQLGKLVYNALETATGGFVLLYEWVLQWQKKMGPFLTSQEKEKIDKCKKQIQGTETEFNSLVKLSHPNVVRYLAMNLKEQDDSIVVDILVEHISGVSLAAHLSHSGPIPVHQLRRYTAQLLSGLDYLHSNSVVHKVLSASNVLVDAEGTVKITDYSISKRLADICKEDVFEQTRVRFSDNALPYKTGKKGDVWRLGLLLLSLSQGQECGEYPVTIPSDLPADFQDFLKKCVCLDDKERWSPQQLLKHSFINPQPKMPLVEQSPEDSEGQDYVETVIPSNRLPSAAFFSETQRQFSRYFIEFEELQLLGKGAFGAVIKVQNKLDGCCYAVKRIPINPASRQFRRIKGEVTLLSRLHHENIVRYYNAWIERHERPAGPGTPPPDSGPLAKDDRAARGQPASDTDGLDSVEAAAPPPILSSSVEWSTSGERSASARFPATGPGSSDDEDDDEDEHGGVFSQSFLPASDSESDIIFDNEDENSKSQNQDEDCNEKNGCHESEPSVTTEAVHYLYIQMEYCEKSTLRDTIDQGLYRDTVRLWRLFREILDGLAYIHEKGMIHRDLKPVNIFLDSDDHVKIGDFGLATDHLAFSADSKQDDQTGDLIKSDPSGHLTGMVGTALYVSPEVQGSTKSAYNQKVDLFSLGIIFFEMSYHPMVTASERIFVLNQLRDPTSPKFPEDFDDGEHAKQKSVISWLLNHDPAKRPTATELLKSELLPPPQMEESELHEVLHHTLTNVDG
Test: biochemical
Format: binding, HIV-1 IN; human GCN2
Settings: screen, single dose 100 µM, single replicate; residual AlphaLISA signal normalized to DMSO control
MEASURED METRIC: IN-GCN2 interaction (%)
Expressed in %, but write only the number.

Use the examples below as a reference point.
| COMPOUND | IN-GCN2 interaction (%) |
| --- | --- |
| Cl.NC(=O)c1cn(C2OC(CO)C(O)C2O)c2ncnc(N)c12 (stereo not shown) | 113.09 |
| c1cc2c(c3c1C[C@@H]1NCCc4cc5c(c-3c41)OCO5)OCO2 | 72.19 |
| COC(=O)NC1C(C)OC(OC2C/C=C(/C)C3C=CC4C(OC5CC(OC6CCC(OC7CC(O)C(OC8CCC(O)C(C)O8)C(C)O7)C(C)O6)C(OC(C)=O)C(C)O5)C(C)CC(C)C4C3(C)/C(O)=C3/C(=O)OC4(CC(C=O)=CC(O)C4/C=C\2C)C3=O)CC1(C)[N+](=O)[O-] (stereo not shown) | 110.41 |
| CC(C)[C@@](O)(C(=O)OCC1=CCN2CC[C@H](O)[C@@H]12)[C@H](C)O | 65.06 |
| C=Cc1cc(OC)c2c(c1)c(=O)oc1c2cc(OC)c2c(O)ccc(C3OC(C)C(O)C(C)(O)C3O)c21 (stereo not shown) | 85.63 |

In: Could you share which IN-GCN2 interaction (%) value was measured for C=C1C(=O)O[C@@H]2[C@H]1CC[C@H](C)[C@]1(O)C=CC(=O)[C@@]21C ?
Out: 120.23

In: Could you share which IN-GCN2 interaction (%) value was measured for CC(=O)CCC(=O)O ?
Out: 123.74

---

Molecular target: IN-GCN2 interaction (6xHis-IN / GST-GCN2) (UniProt P04585+Q9P2K8)
Assay: biochemical
Type: binding, HIV-1 IN; human GCN2
Conditions: screen, single dose 100 µM, single replicate; residual AlphaLISA signal normalized to DMSO control
Lab note: compare IN-GCN2 interaction (%) against 70%. Equal or greater, write Yes. Smaller, write No.

| COMPOUND | CLASSIFICATION |
| --- | --- |
| CC(C)[C@]12CC(=O)[C@@H](C)[C@H]1C2 [NSC67392] | Yes |
| CC1Oc2cc3c(-c4c(O)cc(O)c5c(O)c6c(cc45)OC(C)C(C)C6=O)c(O)cc(O)c3c(O)c2C(=O)C1C (centres unmarked) [NSC345647, chaetochromin] | No |
| CCCCCCCCCCCCCCCCCCOCC(O)CO (centres unmarked) [NSC284200] | Yes |
| CN1CCc2cc3c(cc2[C@H]1[C@@H]1OC(=O)c2c1ccc1c2OCO1)OCO3 [NSC32192] | Yes |
| CC(=O)O[C@H]1C[C@H](O[C@H]2[C@@H](O)C[C@H](O[C@H]3[C@@H](O)C[C@H](O[C@H]4CC[C@@]5(C)[C@H](CC[C@@H]6[C@@H]5C[C@@H](O)[C@]5(C)[C@@H](C7=CC(=O)OC7)CC[C@]65O)C4)O[C@@H]3C)O[C@@H]2C)O[C@H](C)[C@H]1O[C@@H]1O[C@H](CO)[C@@H](O)[C@H](O)[C@H]1O [NSC7533] | Yes |

In: Is IN-GCN2 interaction (%) for CC[C@H](C)C(=O)O[C@H]1CCC=C2C=C[C@H](C)[C@H](CC[C@@H]3C[C@@H](O)CC(=O)O3)[C@H]21 [NSC281245] at or above 70%?
Out: No

In: Is IN-GCN2 interaction (%) for CC1(C)Oc2cc3oc(=O)ccc3c3c2C2C1CCC(C)(O3)C2O (centres unmarked) [NSC83433] at or above 70%?
Out: Yes

In: Is IN-GCN2 interaction (%) for C[C@H]1O[C@H](OC2[C@@H](O)[C@@H](O)C(O)[C@H](O)[C@H]2O)[C@@H](N)C[C@@H]1N=C(N)C(=O)O (some centres unmarked) [NSC100858] at or above 70%?
Out: Yes

In: Is IN-GCN2 interaction (%) for C[C@]12CC[C@H]3[C@@H](CC[C@]4(O)C[C@@H](O)CC[C@]34/C=N/O)[C@@]1(O)CC[C@@H]2C1=COC(=O)C1 [NSC93373] at or above 70%?
Out: Yes

In: Is IN-GCN2 interaction (%) for CC[C@]12CN3CCc4c([nH]c5ccccc45)[C@@](C(=O)OC)(c4cc5c(cc4OC)N(C)[C@H]4[C@@](O)(C(=O)OC)[C@H](OC(C)=O)[C@]6(CC)C=CCN7CC[C@]54[C@@H]76)C[C@@H](C3)[C@H]1O2 [NSC90636] at or above 70%?
Out: No

In: Is IN-GCN2 interaction (%) for C[C@@H]1C(=O)C[C@H]2C(C)(C)CCC[C@]2(C)[C@@]1(O)CCc1ccoc1 [NSC332876] at or above 70%?
Out: No

In: Is IN-GCN2 interaction (%) for COc1cc2cc(c1Cl)N(C)C(=O)C[C@H](OC(=O)[C@H](C)N(C)C(C)=O)[C@]1(C)O[C@H]1[C@H](C)[C@@H]1C[C@@](O)(NC(=O)O1)[C@H](OC)/C=C/C=C(\C)C2 [NSC153858] at or above 70%?
Out: Yes
